System: wheat
Assay: Test B pre/postemergence wheat
Assay type: in vivo, Triticum aestivum
Conditions: Preemergence, Rate 500 g/ha; scale of 0 to 10 where 0 is no effect and 10 is complete control
Value Kind: Wheat plant response rating
Respond with the number and no other words.

Would you please look over these solved cases?
compound="CC(C)N(C(=O)n1oc(=O)n(CCCC(F)(F)F)c1=O)c1ccc(Cl)cc1 [Compound 555]" value_kind="Wheat plant response rating" recorded_result=3
compound="CC(C)=CCn1c(=O)on(C(=O)N(c2ccccc2)C(C)C)c1=O [Compound 574]" value_kind="Wheat plant response rating" recorded_result=0
compound="CC(C)N(C(=O)n1oc(=O)[nH]c1=O)c1ccc(F)cc1F [Compound 391]" value_kind="Wheat plant response rating" recorded_result=0
compound="C=C(Cn1c(=O)on(C(=O)N(c2ccccc2)C(C)C)c1=O)c1cccnc1 [Compound 498]" value_kind="Wheat plant response rating" recorded_result=0
compound="CC(C)N(C(=O)n1oc(=O)n(CC2CCCC2)c1=O)c1ccc(F)cc1 [Compound 322]" value_kind="Wheat plant response rating" recorded_result=0

// Wheat plant response rating value for CC(C)N(C(=O)n1oc(=O)n(-c2ccc3ccccc3c2)c1=O)c1ccccc1 [Compound 332] : 0

Summary for this compound, Cc1ccccc1-n1c(=O)on(C(=O)N(c2ccc3ccccc3c2)C(C)C)c1=O [Compound 306] : Wheat plant response rating is 0

Entry Cc1ccccc1-n1c(=O)on(C(=O)N(c2ccncc2)C(C)C)c1=O [Compound 301] — recorded Wheat plant response rating = 0
